# System: Cavia porcellus
# experimental details: Inhibition of PAF-induced bronchoconstriction in guinea pig after oral administration after two-hour pretreatment time
# Type: functional
# assay conditions: read-out: ID50 (the source's name)
Exercise: for every item that follows, state its recorded ED50.
One number for each entry, in mg/kg.

## Task Looking for the measured ED50 of `Cc1nnc2n1-c1sc(C#CCOc3cccnc3)cc1C(c1ccccc1Cl)=NC2` , can you help?
## Result 0.2

## Task Looking for the measured ED50 of `Cc1nnc2n1-c1ccc(C#CCN3C(=O)CSc4ccccc43)cc1C(c1ccccc1F)=NC2` , can you help?
## Result 0.3

## Task Looking for the measured ED50 of `Cc1nnc2n1-c1sc(C#CCN3C(=O)CC(C)(C)c4ccccc43)cc1C(c1ccccc1Cl)=NC2` , can you help?
## Result 0.03

## Task Looking for the measured ED50 of `Cc1nnc2n1-c1sc(C#CCn3c(=O)n(C)c4ccccc43)cc1C(c1ccccc1Cl)=NC2` , can you help?
## Result 0.04

## Task Looking for the measured ED50 of `Cc1nnc2n1-c1sc(C#CCn3c(=O)n(-c4ccccc4)c4ccccc43)cc1C(c1ccccc1Cl)=NC2` , can you help?
## Result 0.02

Look up ED50 for the entries below, preserving their order.
1. Cc1nnc2n1-c1sc(C#CCN3C(=O)c4cccc5cccc(c45)C3=O)cc1C(c1ccccc1Cl)=NC2
2. C=C=Cn1c(=O)n(CC#Cc2cc3c(s2)-n2c(C)nnc2CN=C3c2ccccc2Cl)c2ccccc21

## Result
0.03
0.03

## Task Looking for the measured ED50 of `Cc1nnc2n1-c1ccc(C#CCN3C(=O)CCc4ccccc43)cc1C(c1ccccc1F)=NC2` , can you help?
## Result 0.4

Origin of measurements: ChEMBL document CHEMBL1125634
